# Test system: Phosphorylation of ERK1/2 in A549 cells
# METHOD: Phospho-ERK1/2 MSD Assay (A549)
# Type: cell-based
# PROTOCOL CONDITIONS: Homo sapiens, A549, 4 h, read-out: pERK IC50 (4 h, A549), 4 h compound treatment
pIC50: −log10 of the molar value.
MEASURED ATTRIBUTE: pIC50

[[record]]
compound = "C=CC(=O)N1CC(NC(=O)Cn2c(C)c(C(=O)N3Cc4ccccc4CC3C)c3cc(Br)cc(C)c32)C1 (stereo not shown)"
result = 4.22

[[record]]
compound = "C=CC(=O)N1CC(N2CC[C@@H](n3c(C)c(C(=O)N4CCc5c(cccc5OC)C4)c4cc(Br)ccc43)C2=O)C1"
result = "< 4.48"

[[record]]
compound = "C=CC(=O)N1CC(NC(=O)Cn2cc(C(=O)NCC(c3sccc3C)N(C)C)c3cc(Br)ccc32)C1 (stereo not shown)"
result = "< 4.00"

[[record]]
compound = "C=CC(=O)N1CC(NC(=O)Cn2cc(C(=O)N3CCc4c(ccnc4OC)C3)c3c(Cl)c(Cl)ccc32)C1"
result = "< 4.00"

[[record]]
compound = "C=CC(=O)N1CC(NC(=O)Cn2cc(C(=O)NCCOc3c(C)cccc3C)c3cc(Cl)cc(Cl)c32)C1"
result = "< 4.00"

[[record]]
compound = "C=CC(=O)N1CC(N(C)C(=O)Cn2c(C)c(C(=O)N3CCc4c(cccc4OC)C3)c3cc(Br)cc(C)c32)C1"
result = "< 4.00"

[[record]]
compound = "C=CC(=O)N1CC(NC(=O)Cn2c(CC3CC3)c(C(=O)N3CCc4c(cccc4OC)C3)c3cc(Cl)cc(C)c32)C1"
result = "< 4.00"

